Reference for the values: PubChem BioAssay (NCI)

test: NCI Yeast Anticancer Drug Screen. Data for the rad50 strain (AID 155);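 further: 0% = growth of vehicle-only cultures of the same strain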; conditions: S. cerevisiae rad50 strain growth inhibition; at 5.0 µM (retest, dose inferred, filed as 0.5); stronger effect = higher value
Compounds without any hit were thinned out: in the full panel of roughly 79,000, 15% have a hit.
Overview of recorded growth inhibition for various compounds
Field: numeric (%). Do not append units.

*Q* Answer with the recorded growth inhibition of O=[N+]([O-])c1cc(CN(CCO)CCO)c(O)c2ncccc12 only.
*A* 99

* * *

# growth inhibition per record follows
assay: NCI Yeast Anticancer Drug Screen. Data for the bub3 strain (AID 167); details: S. cerevisiae bub3 mutant strain, at 5.0 µM (retest, dose inferred, filed as 0.5), stronger effect = higher value
Compounds without any hit were thinned out: in the full panel of roughly 79,000, 15% have a hit.
Number only, in %; omit the unit.

Consider the worked cases shown below.
{"columns": ["compound", "growth inhibition / %"],
 "data": [
  ["CC1CC[N-]CC1.CC1CC[N-]CC1.CC1CC[N-]CC1.CC1CC[N-]CC1.CS(C)=O.CS(C)=O.[Cl-].[Cl-].[Cl-].[Cl-].[Pt+4].[Rh+3]", 52],
  ["COc1ccc(C2C3=C(CCCC3=O)Oc3cc4c(cc32)OCO4)cc1 (centres undefined)", -2],
  ["COc1cc(C(c2cc3c(cc2O)OCO3)N2CCCCC2)cc(OC)c1OC (centres undefined)", -1],
  ["Cc1ccc(C)c(N2C(=O)C(=O)C(c3nc4ccccc4o3)C(=O)C2=O)c1", 13],
  ["Cc1cc(N)c2ccccc2[n+]1CCCCCCCCCC[n+]1c(C)cc(N)c2ccccc21", 97]
]}

*Q* Assign growth inhibition to the following record: C[n+]1c(-c2cccc(OCCOCCOc3cccc(-c4c5cc(N)ccc5c5ccc(N)cc5[n+]4C)c3)c2)c2cc(N)ccc2c2ccc(N)cc21
*A* 22

*Q* Given CCOC(=O)C(CO)c1nc2c([nH]c1=O)c(=O)n(C)c(=O)n2C (centres undefined) , respond with its growth inhibition.
*A* 6

*Q* Quote growth inhibition reported for C/C=C1\SC(=S)NC1=O please.
*A* 9

*Q* State its growth inhibition: COc1ccc(CN=C(N)N)c2ccccc12
*A* -22

* * *

Items are presented alongside their recorded growth inhibition.
assay: NCI Yeast Anticancer Drug Screen. Data for the rad50 strain (AID 155);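 further: 0% = growth of vehicle-only cultures of the same strain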; settings: S. cerevisiae rad50 strain growth inhibition; at 5.0 µM (retest, dose inferred, filed as 0.5); stronger effect = higher value
About 79,000 compounds went through this panel and 15% of them were active in at least one assay; those are over-represented in the sample as a whole. Where a SMILES comes first, the peptide text is derived from it. The star is where a group is joined. Trt = c1ccc(C(c2ccccc2)(c2ccccc2)*)cc1; Cbz = O=C(OCc1ccccc1)*
Response body: numeric value in %, unit text excluded.

Worked examples follow.
{"columns": ["compound", "resultUnits", "endpointResult"],
 "data": [
  ["Cn1cc(C2=CC(=O)C=CC2=O)c2ccccc21", "%", 0],
  ["O=C1NC2(C=Cc3c(ccc4ccccc34)O2)Oc2ccccc21 (stereo not given)", "%", -12],
  ["O=C1C=CC(=O)N1C1CCCCC1", "%", 93],
  ["COC(=O)C(CSC(c1ccccc1)(c1ccccc1)c1ccccc1)NC(=O)C(CC(N)=O)NC(=O)OCc1ccccc1 (stereo not drawn) (Cbz-Asn-Cys(Trt)-OMe; configuration not given here)", "%", 32],
  ["Cc1cc(N)c2c(c1O)C(=O)c1ccccc1C2=O", "%", -2],
  ["CCCCOc1c(OCCCC)c(=O)c1=O", "%", 78],
  ["CC(C)CCCCCCCCCCCCC(=O)NCC(=O)NC1C(C)OC(Nc2ncnc3nc[nH]c23)C(O)C1O (stereo not given)", "%", 22],
  ["O=C1c2ccccc2NC(=O)C2C1C(c1ccccc1)CC2(O)c1ccccc1 (stereo not given)", "%", 7],
  ["Clc1cc(Cl)c(NN=C(c2ccccc2)c2ccccc2)c(Cl)c1", "%", 37]
]}

*Q* Please look at this compound and report its growth inhibition: c1ccc(-c2cnc3nc4ccccc4nc3n2)cc1
*A* -7

* * *

experiment: NCI Yeast Anticancer Drug Screen. Data for the sgs1 mgt1 strain (AID 161);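 further: 0% = growth of cultures given vehicle only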; conditions: S. cerevisiae sgs1 mgt1 strain, at 50.0 µM (retest, dose inferred, filed as 5.0), stronger effect = higher value
The panel holds about 79,000 compounds, 15% with a hit somewhere; the sample as a whole holds those more often.
metricName: growth inhibition (%)
Give just the numeric value; % need not be written.

{"columns": ["molecule", "resultUnits", "endpointResult"],
 "data": [
  ["CC1=C(C(=O)Nc2ccccc2)C(c2ccccc2F)C(C(=O)Nc2ccccc2)=C(C)N1", "%", 17],
  ["CCC1CCC(CC)C1=O (configuration not stated)", "%", 3],
  ["CC(C)(CN1CCCCC1)C(=O)CC(SCCS(=O)(=O)O)c1ccc(Cl)cc1 (configuration not stated)", "%", 85]
]}

*Q* Supply reported growth inhibition belonging to this molecule: C=C(Cl)C(=NC(C)(C)C)Nc1ccccc1C
*A* 61

*Q* State its growth inhibition for this molecule: O=C(Cl)c1cc(-c2ccc(Cl)cc2)nc2c(Cl)cccc12
*A* 99

*Q* Fill in reported growth inhibition for this entry: c1ccc(/C(=N\Nc2nc3ccccc3s2)c2ccccn2)cc1
*A* 90

*Q* Give reported growth inhibition value for CN(Cc1cnc2nc(N)nc(N)c2n1)c1ccc(C(=O)NC(CCC(=O)O)C(=O)O)cc1 (configuration not stated)
*A* 53

* * *

growth inhibition for assorted compounds
assay: NCI Yeast Anticancer Drug Screen. Data for the rad50 strain (AID 155);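 further: 0% = growth of vehicle-only cultures of the same strain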; conditions: S. cerevisiae rad50 strain growth inhibition; at 5.0 µM (retest, dose inferred, filed as 0.5); stronger effect = higher value
The panel holds about 79,000 compounds, 15% with a hit somewhere; the sample as a whole holds those more often.
Give the value, in units of %, as a plain number.

// solved cases for growth inhibition follow
{"columns": ["compound", "resultUnits", "growth inhibition"],
 "data": [
  ["CN(C)c1nc(=Nc2ccc(N=c3nc(N(C)C)ss3)cc2)ss1", "%", 0],
  ["CC(C)c1ccc(/C=C2\\CSCC3=C2NC(=S)NC3c2ccc(C(C)C)cc2)cc1 (stereo not given)", "%", -6],
  ["Cn1c2ccccc2c2nnc(N/N=C/c3ccccn3)nc21", "%", 26],
  ["CC(C)(c1ccccc1)c1ccc2[nH]c(C(C)(C)c3ccccc3)c(CC(=O)O)c2c1", "%", 2]
]}

Next compound, growth inhibition to be filled in.
*Q* Dear colleague, please send me the reported growth inhibition for O=C(CC1(O)C(=O)Nc2c(Cl)ccc(Cl)c21)c1ccc(Cl)cc1Cl (stereo not given) when you can.
*A* 25

* * *

assay: NCI Yeast Anticancer Drug Screen. Data for the mlh1 rad18 strain (AID 175); conditions: S. cerevisiae mlh1 rad18 strain growth inhibition; at 50.0 µM (retest, dose inferred, filed as 5.0)
This is part of a sample that, as a whole, favours compounds with a hit. Of some 79,000 tested, about 15% had one in any assay. Calls of active or inactive are those of the source. Cut-off read from the data, not from the text of the source: active = growth inhibition above about 70%; inactive = the rest.
Write down one outcome, taken from active, inactive

Illustrative cases are given below, each with its answer.
{"columns": ["molecule", "labelClass"],
 "data": [
  ["O=C(O)CC1(C(=O)O)CCCCC1", "inactive"],
  ["CN1c2ccccc2C(C)(C)C12C=Cc1cc(O)ccc1O2 (stereo unspecified)", "inactive"],
  ["OC1C2COc3nc4ccccc4n3C(O2)C1O (stereo unspecified)", "inactive"],
  ["Nc1ccc(C2CCC[C@H]2c2ccc(N)cc2)cc1 (stereo partly specified)", "active"],
  ["Cn1c(N)c(N=Nc2ccc(S(N)(=O)=O)cc2)c(=O)n(C)c1=O", "inactive"]
]}

*Q* # fetch the recorded call for Cc1cc2c(cc1C)[n+](=O)c(C(=O)C/C(=N/NC(=O)CC#N)C(=O)Nc1ccccc1C(F)(F)F)c(C)n2[O-] here
*A* inactive

*Q* Could you please tell me the result logged for CCC(CCCN(CC)CCc1ccccc1)OC(=O)c1cc(OC)c(OC)c(OC)c1 (stereo unspecified) in this assay?
*A* inactive

* * *

test: NCI Yeast Anticancer Drug Screen. Data for the bub3 strain (AID 167); settings: S. cerevisiae bub3 mutant strain, at 50.0 µM (retest, dose inferred, filed as 5.0), stronger effect = higher value
The panel holds about 79,000 compounds, 15% with a hit somewhere; the sample as a whole holds those more often. Calls of active or inactive are those of the source. No stated cut-off is given here; in the data, active means growth inhibition above about 70%; inactive means the rest.
Reported growth inhibition values for a set of compounds

{"columns": ["compound", "endpointResult"],
 "data": [
  ["CCCCC(CC)(CCC)CCN (stereo unspecified)", "67% (inactive)"]
]}

*Q* Identify growth inhibition associated with the compound O=C1c2c(O)ccc(O)c2C(=O)c2c(O)ccc(O)c21
*A* 8% (inactive)

*Q* Name the recorded growth inhibition of the item O=C(N/N=C/c1ccccc1)c1ccc([N+](=O)[O-])cc1 in your answer.
*A* 24% (inactive)

*Q* State its growth inhibition: CN(C)CCC(/C=C/c1ccccc1)=N\Nc1c(F)c(F)c(F)c(F)c1F
*A* -14% (inactive)

*Q* Please supply the value of reported growth inhibition for the item C=C1C(=O)OC2C1CC1OC2C(C)CCC/C(C)=C\CCC1(C)O (stereo unspecified)
*A* 8% (inactive)

*Q* Determine from records and report growth inhibition for O=c1[nH]c2c([N+](=O)[O-])cc(Cl)cc2nc1/C=C(\O)c1ccccc1
*A* 77% (active)
